assay: Human HepG2 cell viability assay in 384 well format; format: toxicity, cell-based; set-up: dose 125 nL, time 70.5 hour; concentration not given beside the values; settings: HepG2 cells, read-out: Inhibition
Collected cytotoxicity at 70.5 h values appear next to each entry.
Measured Quantity: cytotoxicity at 70.5 h

Compound: CC(C)Nc1ncnc2c1CCN(C(=O)CN(C)C)CC2
Result: 36.6%
--
Compound: CC(NC(=O)COC1CCCC1)c1nc(-c2ccccc2)c[nH]1 (stereo unspecified)
Result: -1.37%
--
Compound: CCN1CCN(C2CCN(Cc3nc(C)c(C)o3)CC2)C1=O
Result: -3.68%
--
Compound: O=C(CCS(=O)(=O)c1ccccc1)NC1CCOC2(CCOCC2)C1 (stereo unspecified)
Result: -8.45%
--
Compound: O=S(=O)(CC1CC1)c1ncc(CN2CCOCC2)n1CC1CCCO1 (stereo unspecified)
Result: -0.667%
--
Compound: CCCn1cc(C(=O)N2CCCC2(C)c2nc(C)cc(N)n2)cn1 (stereo unspecified)
Result: -1.03%
--
Compound: CS(=O)(=O)NCC1CCCN(C(=O)Nc2cccnc2N2CCCC2)C1 (stereo unspecified)
Result: -0.725%
--
Compound: O=C(c1cn(-c2ccc(C(F)(F)F)cn2)nn1)N1CCCCCC1
Result: -3.98%
--
Compound: CN(C)CC(=O)N1CCC2(CC1)CN(Cc1cccnc1)C(=O)CO2
Result: 17.2%
--
Compound: Cc1noc(C)c1CN1CCCCC1CCc1ccc(O)cc1 (stereo unspecified)
Result: -1.36%
--
Compound: CCOCC(=O)N1Cc2nccn2CC(CN(C)C)C1 (stereo unspecified)
Result: 1.2%
